biological target: T1, MHC class I molecule HLA-A*0201 (iTopia plate-bound monomer) (biotin (bound to streptavidin-coated plate)); assay: iTopia off-rate assay, 37 C; fit R^2 0.94
T1 construct: also called A2
Below, each entry is listed with its recorded t½ half life.

BINDER	VALUE_UNITS	t½ half life
AGDGRLRLA (also called Peptide No 6) [5T4 9-mer peptide 6 AGDGRLRLA]	min	6
GSRLDEVRA (also called Peptide No 64) [5T4 9-mer peptide 64 GSRLDEVRA]	min	114
FARRPPLAE (also called Peptide No 56) [5T4 9-mer peptide 56 FARRPPLAE]	min	18
GWVSSSSPT (also called Peptide No 14) [5T4 9-mer peptide 14 GWVSSSSPT]	min	60
